Cited source for all entries: ChEMBL document CHEMBL4483862

# Test system: Plasmodium berghei
# experiment: Luciferase/luciferin-expressing antifolate-resistant parasites were used to infect a culture of HepG2 cells that were pre-incubated with compounds. Infected hepatocytes emit light due to the luciferase reaction. Assay results are presented as the percent inhibition of light emission compared to control. […]
# Format: functional
# measurement-context: sporozoite, HEPG2TOX_HILL_SLOPE 15.1, HEPG2TOX_R_SQUARED 0.905, PBLUC_HILL_SLOPE 217, PBLUC_R_SQUARED 0.361, read-out: LUCIFERASE INFECTION ASSAY - IC50
property: IC50 (µM)
One number for each entry, in µM.

Could you share which IC50 value was measured for C=CCc1ccccc1OCC(O)CNC(C)(C)CC(C)(C)C (stereo unspecified) ? 4.86

* * *

# System: Plasmodium berghei
# experiment: Luciferase/luciferin-expressing antifolate-resistant parasites were used to infect a culture of HepG2 cells that were pre-incubated with compounds. Infected hepatocytes emit light due to the luciferase reaction. Assay results are presented as the percent inhibition of light emission compared to control. […]
# Type: functional
# measurement-context: sporozoite, HEPG2TOX_HILL_SLOPE 1.69, HEPG2TOX_R_SQUARED 0.984, PBLUC_HILL_SLOPE 1.61, PBLUC_R_SQUARED 0.8, read-out: LUCIFERASE INFECTION ASSAY - IC50
property: IC50

Notebook: pull reported IC50 for Plasmodium berghei, entry Cc1ccc(-c2csc(NC(=O)/C=C/c3cnn(C)c3)n2)o1 1110 nM

* * *

# Test system: Plasmodium berghei
# experiment: Luciferase/luciferin-expressing antifolate-resistant parasites were used to infect a culture of HepG2 cells that were pre-incubated with compounds. Infected hepatocytes emit light due to the luciferase reaction. Assay results are presented as the percent inhibition of light emission compared to control. […]
# Type: functional
# measurement-context: sporozoite, PBLUC_HILL_SLOPE 1.72, PBLUC_R_SQUARED 0.746, read-out: LUCIFERASE INFECTION ASSAY - IC50
property: pIC50
Answers are plain numbers, as −log10 of the molar value.

Find the recorded pIC50 belonging to FC(F)(F)c1cccc(Nc2nnnc3ccccc23)c1 and report it. 5.99

* * *

# Tested on: Plasmodium berghei
# experiment: Luciferase/luciferin-expressing antifolate-resistant parasites were used to infect a culture of HepG2 cells that were pre-incubated with compounds. Infected hepatocytes emit light due to the luciferase reaction. Assay results are presented as the percent inhibition of light emission compared to control. […]
# Type: functional
# measurement-context: sporozoite, PBLUC_HILL_SLOPE 2.26, PBLUC_R_SQUARED 0.534, read-out: LUCIFERASE INFECTION ASSAY - IC50
property: IC50

Which measured IC50 value corresponds to Cc1cc(C(=O)COC(=O)c2ccc3[nH]c4c(c3c2)CCCC4)c(C)n1Cc1ccccc1Cl ? 1.74 µM

* * *

# System: Plasmodium berghei
# experiment: Luciferase/luciferin-expressing antifolate-resistant parasites were used to infect a culture of HepG2 cells that were pre-incubated with compounds. Infected hepatocytes emit light due to the luciferase reaction. Assay results are presented as the percent inhibition of light emission compared to control. […]
# Format: functional
# measurement-context: sporozoite, FFLUC_HILL_SLOPE 11.3, FFLUC_R_SQUARED 0.5, read-out: LUCIFERASE INFECTION ASSAY - IC50
property: IC50

Give its IC50 value. Item: O=C(Nc1cccc(Cl)c1)C1CCN(c2ccc(C(F)(F)F)cn2)CC1 > 8.6 µM

* * *

# Tested on: Plasmodium berghei
# experiment: Luciferase/luciferin-expressing antifolate-resistant parasites were used to infect a culture of HepG2 cells that were pre-incubated with compounds. Infected hepatocytes emit light due to the luciferase reaction. Assay results are presented as the percent inhibition of light emission compared to control. […]
# Assay type: functional
# measurement-context: sporozoite, FFLUC_HILL_SLOPE 1.6, FFLUC_R_SQUARED 0.58, HEPG2TOX_HILL_SLOPE 1.47, HEPG2TOX_R_SQUARED 0.871, PBLUC_HILL_SLOPE 3.01, PBLUC_R_SQUARED 0.133, read-out: LUCIFERASE INFECTION ASSAY - IC50
property: pIC50
Answers are plain numbers, as −log10 of the molar value.

For CC(C)n1ncc2c(C(=O)Nc3sccc3C#N)cc(C3CC3)nc21 , what is its reported pIC50? 5.26

* * *

# Test system: Plasmodium berghei
# experiment: Luciferase/luciferin-expressing antifolate-resistant parasites were used to infect a culture of HepG2 cells that were pre-incubated with compounds. Infected hepatocytes emit light due to the luciferase reaction. Assay results are presented as the percent inhibition of light emission compared to control. […]
# Type: functional
# measurement-context: sporozoite, FFLUC_HILL_SLOPE 11.2, FFLUC_R_SQUARED 0.698, HEPG2TOX_HILL_SLOPE 0.884, HEPG2TOX_R_SQUARED 0.902, PBLUC_HILL_SLOPE 2.26, PBLUC_R_SQUARED 0.742, read-out: LUCIFERASE INFECTION ASSAY - IC50
property: pIC50
One number for each entry, as −log10 of the molar value.

Looking for the measured pIC50 of CCCNC(=O)c1c(NC(=O)c2ccc(C(F)(F)F)cc2)nc2ccc(C)cn12 , can you help? 6.38

* * *

# Tested on: Plasmodium berghei
# experiment: Luciferase/luciferin-expressing antifolate-resistant parasites were used to infect a culture of HepG2 cells that were pre-incubated with compounds. Infected hepatocytes emit light due to the luciferase reaction. Assay results are presented as the percent inhibition of light emission compared to control. […]
# Assay type: functional
# measurement-context: sporozoite, PBLUC_HILL_SLOPE 16.2, PBLUC_R_SQUARED 0.114, read-out: LUCIFERASE INFECTION ASSAY - IC50
property: IC50 (µM)
One number for each entry, in µM.

So what IC50 did O=S(=O)(c1c(Cl)cc(Br)cc1Cl)N1CCN(C(=S)NC2CC3CCC2C3)CC1 (stereo unspecified) get with Plasmodium berghei? 8.93

* * *

# System: Plasmodium berghei
# experiment: Luciferase/luciferin-expressing antifolate-resistant parasites were used to infect a culture of HepG2 cells that were pre-incubated with compounds. Infected hepatocytes emit light due to the luciferase reaction. Assay results are presented as the percent inhibition of light emission compared to control. […]
# Type: functional
# measurement-context: sporozoite, HEPG2TOX_HILL_SLOPE 1.26, HEPG2TOX_R_SQUARED 0.924, PBLUC_HILL_SLOPE 2.1, PBLUC_R_SQUARED 0.295, read-out: LUCIFERASE INFECTION ASSAY - IC50
property: IC50 (µM)
Answers are plain numbers, in µM.

Form entry - test system: Plasmodium berghei; read-out: IC50; compound: Nc1ncc(-c2cccc(OC(F)(F)F)c2)cc1-c1cccnc1 5.18

* * *

# Tested on: Plasmodium berghei
# experiment: Luciferase/luciferin-expressing antifolate-resistant parasites were used to infect a culture of HepG2 cells that were pre-incubated with compounds. Infected hepatocytes emit light due to the luciferase reaction. Assay results are presented as the percent inhibition of light emission compared to control. […]
# Type: functional
# measurement-context: sporozoite, read-out: LUCIFERASE INFECTION ASSAY - IC90
property: IC90

Take a look at these entries with their results.
Fill blank: measured IC90 of the compound OC(c1cc(F)c(F)c(F)c1)c1nnc(Nc2cccc(Cl)c2)s1 (stereo not given) is ____. > 10 µM

Request the reported IC90 associated with Cc1ccc(C)c(Oc2ccc(NC(=O)Nc3ccc(SC(F)(F)F)cc3)cn2)c1 2.68 µM

What does the record list as IC90 for O=[N+]([O-])c1ccc(NC2CCN(Cc3ccccc3)CC2)c2ccncc12 ? > 10 µM

Would you mind telling me what IC90 value was observed for COc1ccc(C(N)=O)cc1NC(=O)NCc1ccc(N2CCCCCC2)nc1 ? > 10 µM

Continuing:
What does the record list as IC90 for Cc1ccc(Nc2nc(C(F)(F)F)nc3ccccc23)cc1S(=O)(=O)N(C)C ? > 10 µM

* * *

# Tested on: Plasmodium berghei
# experiment: Luciferase/luciferin-expressing antifolate-resistant parasites were used to infect a culture of HepG2 cells that were pre-incubated with compounds. Infected hepatocytes emit light due to the luciferase reaction. Assay results are presented as the percent inhibition of light emission compared to control. […]
# Assay type: functional
# measurement-context: sporozoite, PBLUC_HILL_SLOPE 1.89, PBLUC_R_SQUARED 0.43, read-out: LUCIFERASE INFECTION ASSAY - IC50
property: IC50 (µM)
Answers are plain numbers, in µM.

Given CC(=O)c1ccc(-c2cnc3sc(NCCN4CCOCC4)nn23)s1 , state its recorded IC50. 5.97

* * *

# Test system: Plasmodium berghei
# experiment: Luciferase/luciferin-expressing antifolate-resistant parasites were used to infect a culture of HepG2 cells that were pre-incubated with compounds. Infected hepatocytes emit light due to the luciferase reaction. Assay results are presented as the percent inhibition of light emission compared to control. […]
# Type: functional
# measurement-context: sporozoite, PBLUC_HILL_SLOPE 2.7, PBLUC_R_SQUARED 0.367, read-out: LUCIFERASE INFECTION ASSAY - IC50
property: pIC50
Numbers only, as −log10 of the molar value.

Param readout = pIC50; param system = Plasmodium berghei; param query = O=C(/C=C/c1cccs1)N1CCN(S(=O)(=O)c2ccc(Cl)c(C(F)(F)F)c2)CC1 ; response: value 5.26
